- Tested System: Voltage-gated potassium channel subunit beta-2 (Rattus norvegicus)
- Assay Comment: KvBeta positive modulators, primary screen, biochemical, NADPH fluorescence (AID 623);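 further: fluorescence intensity change per second fitted from 20 to 320 s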
- Test Conditions: Recombinant KvBeta, NADPH fluorescence decrease slope, 10 min; at 10 µM; active compounds read low
Measured NADPH fluorescence slope, listed per entry for reference.
Property Label: NADPH fluorescence slope

>>> measured_result("O=C(Nc1ccccn1)c1ccc(=O)[nH]n1")
-0.0002
>>> measured_result("c1ccc(-c2ccc(-c3ccccn3)nn2)nc1")
"-1.3e-05"
>>> measured_result("COc1ccc(CC(=O)OCN2C(=O)c3ccccc3C2=O)cc1")
"-1.7e-05"
>>> measured_result("CCCOc1ccc(C2C(C(=O)OC)=CN(CCOC)C=C2C(=O)OC)cc1")
"1.3e-05"
>>> measured_result("CC(=O)Oc1ccc2c(C)cc(=O)[nH]c2c1")
-0.000195
>>> measured_result("CCC(C)(C(=O)NC1CCCCC1)N(Cc1ccco1)C(=O)c1cnccn1 (centres undefined)")
"-4.2e-05"
>>> measured_result("COc1cccc(/C=N/n2c(C)nc3ccccc32)c1OC")
"3.2e-05"
>>> measured_result("CCCN(CCC)c1nc2ccccc2nc1C(C#N)C(=O)OC(C)COC (centres undefined)")
"-7.9e-05"
>>> measured_result("O=C(C1CCN(c2nnc(-n3cccc3)s2)CC1)N1CCOCC1")
"-4.1e-05"
>>> measured_result("CCCCOC(=O)c1[nH]c(C)c(C(=O)OC)c1C")
"-1.9e-05"
>>> measured_result("N/C(=N/O)c1nc(N2CCCC2)nc(N(c2ccccc2)c2ccccc2)n1")
"-3.2e-05"
>>> measured_result("COC(=O)CSC1=C(C#N)C(c2ccc(F)cc2)CC(=O)N1 (centres undefined)")
"-3.8e-05"
>>> measured_result("CCN(CC)CCn1c(OC)cc(=O)[nH]c1=O")
"1.6e-06"
>>> measured_result("COc1ccc(CN(C)CCc2ccccn2)c(OC)c1OC")
"-3.4e-05"
>>> measured_result("CN(C)CCCN1C(=O)C(=O)/C(=C(/O)c2ccccc2)C1c1ccccn1 (centres undefined)")
"-6.1e-05"
>>> measured_result("COc1ccc(-c2ccc(Nc3ccc(S(=O)(=O)N4CCCC4)cc3)nn2)cc1OC")
"-4.3e-05"
>>> measured_result("CCO/C(C)=N/n1c2nc3ccccc3nc2c2c(=O)n(Cc3ccccc3Cl)c(C)nc21")
"-3.5e-05"
>>> measured_result("CCCn1c(SCC(=O)Nc2ccccc2C(=O)OCC)nc2c1c(=O)n(C)c(=O)n2C")
"-3.8e-05"
>>> measured_result("O=C(COc1ccc(-c2nnc(N3CCCCC3)c3ccccc23)cc1)N1CCCCC1")
"2e-05"

Value source: PubChem BioAssay
